We begin with a simple list: items and their reported IC50.
- subjectOfTest: T1, human IL-11Rα on transfected cells (human, UniProt Q14626 23-422)
- T1 sequence: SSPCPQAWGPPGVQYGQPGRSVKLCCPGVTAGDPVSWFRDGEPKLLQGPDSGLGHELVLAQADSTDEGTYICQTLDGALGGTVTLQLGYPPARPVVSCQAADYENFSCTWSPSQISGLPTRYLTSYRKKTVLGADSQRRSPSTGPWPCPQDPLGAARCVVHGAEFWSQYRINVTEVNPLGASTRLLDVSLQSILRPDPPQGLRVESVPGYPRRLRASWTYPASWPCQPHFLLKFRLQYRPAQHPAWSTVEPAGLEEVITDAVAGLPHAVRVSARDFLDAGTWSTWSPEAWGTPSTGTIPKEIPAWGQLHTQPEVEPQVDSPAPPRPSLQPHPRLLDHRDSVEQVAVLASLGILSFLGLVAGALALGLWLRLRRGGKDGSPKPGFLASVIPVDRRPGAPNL
- assayRemarks: cell-based or functional assay
Return type: number; implicit unit µg/mL.

Reference set (5 entries):
hu8E2-TS-303 (antibody, V domains shown) VH: EVQLLESGGGLVQPGGSLRLSCAASGFTFSWYSMTWVRQAPGKGLEWVSSIVPSGGHTQYADSVKGRFTISRDNSKNTLYLQMNSLRAEDTAVYYCAKGPGWGSFDLWGRGTLVTVSS VL: DIQMTQSPSSLSASVGDRVTITCQASQDVDYWVEWYQQKPGKAPKLLIYDASNLQTGVPSRFSGSGSGTDFTFTISSLQPEDIATYYCQQYDNLSPTFGPGTKVDIK : 0.35
hu8E2-TS-310 (antibody, V domains shown) VH: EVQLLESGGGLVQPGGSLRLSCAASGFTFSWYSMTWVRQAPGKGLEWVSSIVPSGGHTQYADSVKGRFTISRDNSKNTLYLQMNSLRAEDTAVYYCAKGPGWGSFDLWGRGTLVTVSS VL: DIQMTQSPSSLSASVGDRVTITCQASQDVAMYIEWYQQKPGKAPKLLIYDASNLQTGVPSRFSGSGSGTDFTFTISSLQPEDIATYYCQQYDNLSPTFGPGTKVDIK : 0.84
hu8E2-TS-49 (antibody, V domains shown) VH: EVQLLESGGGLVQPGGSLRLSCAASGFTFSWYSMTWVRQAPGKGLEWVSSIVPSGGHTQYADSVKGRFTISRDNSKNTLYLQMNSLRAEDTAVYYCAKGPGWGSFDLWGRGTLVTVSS VL: DIQMTQSPSSLSASVGDRVTITCQASQDINNYLNWYQQKPGKAPKLLIYDASNLQTGVPSRFSGSGSGTDFTFTISSLQPEDIATYYCQQYESQAPEFGPGTKVDIK : 0.19
hu8E2-TS-306 (antibody, V domains shown) VH: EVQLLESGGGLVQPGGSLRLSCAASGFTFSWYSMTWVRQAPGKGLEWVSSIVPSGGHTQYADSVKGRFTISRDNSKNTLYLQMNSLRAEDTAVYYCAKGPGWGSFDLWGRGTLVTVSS VL: DIQMTQSPSSLSASVGDRVTITCQASQDVDKYVEWYQQKPGKAPKLLIYDASNLQTGVPSRFSGSGSGTDFTFTISSLQPEDIATYYCQQYDNLSPTFGPGTKVDIK : 0.15
hu8E2-TS-55 (antibody, V domains shown) VH: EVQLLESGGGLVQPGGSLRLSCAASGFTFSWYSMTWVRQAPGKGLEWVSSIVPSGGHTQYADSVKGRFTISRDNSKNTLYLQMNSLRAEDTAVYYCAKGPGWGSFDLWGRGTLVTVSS VL: DIQMTQSPSSLSASVGDRVTITCQASQDINNYLNWYQQKPGKAPKLLIYDASNLQTGVPSRFSGSGSGTDFTFTISSLQPEDIATYYCQQYETQTPAFGPGTKVDIK : 0.21

Next, consider the following binder.
Lab book: IC50 of hu8E2-TS-64 (antibody, V domains shown) VH: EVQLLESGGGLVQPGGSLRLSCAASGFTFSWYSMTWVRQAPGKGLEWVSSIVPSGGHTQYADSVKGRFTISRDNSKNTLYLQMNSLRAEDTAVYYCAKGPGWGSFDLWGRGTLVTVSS VL: DIQMTQSPSSLSASVGDRVTITCQASQDINNYLNWYQQKPGKAPKLLIYDASNLQTGVPSRFSGSGSGTDFTFTISSLQPEDIATYYCQQYESQWPQFGPGTKVDIK noted as 0.26
